Target: T1, RepB OBD (origin binding domain), wt (Streptococcus plasmid pMV158, UniProt P13921 1-131)
T1 sequence: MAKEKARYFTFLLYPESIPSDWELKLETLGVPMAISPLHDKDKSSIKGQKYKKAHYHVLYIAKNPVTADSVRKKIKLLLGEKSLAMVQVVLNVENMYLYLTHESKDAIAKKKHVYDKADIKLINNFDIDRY
Test: EMSA; complex half-life <10 s; EMSA: 20 mM Tris-HCl pH 8.0, 5 mM DTT, 300 mM NaCl, 20 nM DNA, 20 min 25 C; footprinting same buffer; SPR: 10 mM HEPES pH 7.4, 150 mM NaCl, 3 mM EDTA, 0.005% P20
Conditions: protein: recombinant; tags: none; label: 5'-Cy5 (top) for EMSA; 5'-biotin for SPR; blunt
PROPERTY NAME: Kd

Query: Need Kd of DDRC (dsDNA) DNA 1: CTTTTCGGCGACTTTTCGG DNA 2: CCGAAAAGTCGCCGAAAAG , thanks.
Response: ~1000 nM

Every entry's value here was drawn from paper PMC9943647.
